Values were extracted from paper PMC5540273.

test system: RSK3(Kin.Dom.1-N-terminal); construct: gene RPS6KA2; conditions: concentration: 1 μM, replicates: in singlicate; n = 1;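 further: KINOMEscan kinase panel screen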
measured.parameter: %Inh (%)
Just the number in %, nothing appended.

IN: Any idea what %Inh was measured for NC(=O)c1sc(-n2cnc3ccccc32)cc1OCc1ccccc1F ?
OUT: 0

IN: Any idea what %Inh was measured for O=c1cc(N2CCOCC2)nc2n(Cc3cccc(Cl)c3)ccn12 ?
OUT: 0

IN: Any idea what %Inh was measured for COc1ccc(NC(=O)Nc2ccc(C)c(-c3ccc(C(=O)Nc4ccncc4)cc3)c2)cc1 ?
OUT: 0

Continue with the next compound.
IN: Any idea what %Inh was measured for O=C(CCO)NCCn1ccc2ncnc(Nc3ccc(Oc4cccc(C(F)(F)F)c4)c(Cl)c3)c21 ?
OUT: 3

====

tested on: RSK4(Kin.Dom.2-C-terminal); construct: gene RPS6KA6; details: concentration: 1 μM, replicates: in singlicate; n = 1
measured.parameter: %Inh (%)
Just the number in %, nothing appended.

IN: Any idea what %Inh was measured for CC(C)(C)c1ccc(-n2cnc3c(N)ncnc32)cc1 ?
OUT: 0

IN: Any idea what %Inh was measured for Cl.O=S(=O)(c1cccc(F)c1)c1ccc(Nc2ncnc3cc(Br)sc23)cc1Cl ?
OUT: 14

IN: Any idea what %Inh was measured for Nc1nc(-c2ccccn2)c(-c2ccnc3ccccc23)s1 ?
OUT: 76

IN: Any idea what %Inh was measured for Fc1ccc(-c2ncn(CCCNCc3ccccc3)c2-c2ccncc2)cc1 ?
OUT: 31

IN: Any idea what %Inh was measured for CSc1ccc(NC2=C(c3ccccc3Cl)C(=O)NC2=O)cc1 ?
OUT: 0

Next:
IN: Any idea what %Inh was measured for Cc1cccc(-c2nc(Nc3ccc4[nH]nnc4c3)c3ccccc3n2)n1 ?
OUT: 0

IN: Any idea what %Inh was measured for Cc1ccc(O)cc1Nc1cc(C(F)(F)F)nc2ccc(-c3ccncc3)cc12 ?
OUT: 14

IN: Any idea what %Inh was measured for Cn1ccc2ncnc(Oc3ccc(NC(=O)Nc4cccnc4)c(Cl)c3)c21 ?
OUT: 3

IN: Any idea what %Inh was measured for CNc1nccc(-c2c(-c3ccc(F)cc3)ncn2CCCN2CCOCC2)n1 ?
OUT: 87

IN: Any idea what %Inh was measured for Clc1ccc(-c2cc(-c3c[nH]nc3-c3ccccn3)ccn2)cc1 ?
OUT: 44

====

system: ABL1-phosphorylated; conditions: concentration: 1 μM, replicates: in singlicate; n = 1
measured.parameter: %Inh (%)
Just the number in %, nothing appended.

Known results for compounds:
IN: Any idea what %Inh was measured for CSc1nn2c(=O)cc(N3CCOCC3)nc2n1Cc1cccc(Cl)c1Cl ?
OUT: 0

IN: Any idea what %Inh was measured for NC(=O)c1sc(-n2cnc3ccccc32)cc1OCc1ccccc1F ?
OUT: 0

IN: Any idea what %Inh was measured for O=C(Nc1ccccc1)Nc1ccc(Oc2ccc3nccn3n2)cc1 ?
OUT: 18

IN: Any idea what %Inh was measured for CCc1nc(-c2cccc(C)c2)c(-c2ccnc(NC(=O)c3ccccc3)c2)s1 ?
OUT: 0

Next:
IN: Any idea what %Inh was measured for Fc1cccc(COc2ccc(Nc3ncnc4sc(-c5ccc[nH]5)cc34)cc2Cl)c1 ?
OUT: 0

====

tested on: JNK2; construct: gene MAPK9; details: concentration: 1 μM, replicates: in singlicate; n = 1
measured.parameter: %Inh (%)
Just the number in %, nothing appended.

IN: Any idea what %Inh was measured for Nc1nc(-c2cccnc2)c(-c2ccnc3ccccc23)s1 ?
OUT: 29

IN: Any idea what %Inh was measured for Nc1nc(-c2ccccn2)c(-c2ccnc3ccccc23)s1 ?
OUT: 19

Next:
IN: Any idea what %Inh was measured for CCCc1ccc(S(=O)(=O)NC2CCN(c3ccnc(Nc4ccc(OC)cc4)n3)C2)cc1 (stereo not drawn) ?
OUT: 21

IN: Any idea what %Inh was measured for CS(=O)(=O)CCNCc1nc(-c2ccc3ncnc(Nc4ccc(OCc5cccc(F)c5)c(Cl)c4)c3c2)cs1.Cl ?
OUT: 0

IN: Any idea what %Inh was measured for Fc1ccc(-c2ncn(CCCNCc3ccccc3)c2-c2ccncc2)cc1 ?
OUT: 48

IN: Any idea what %Inh was measured for O=C(CCO)NCCn1ccc2ncnc(Nc3ccc(Oc4cccc(C(F)(F)F)c4)c(Cl)c3)c21 ?
OUT: 0

IN: Any idea what %Inh was measured for CCn1c(-c2ccncc2)nc2cnccc21 ?
OUT: 11

IN: Any idea what %Inh was measured for CSc1ccc(NC2=C(c3ccccc3Cl)C(=O)NC2=O)cc1 ?
OUT: 1

IN: Any idea what %Inh was measured for COc1ccc(NC(=O)c2ccc(-c3cc(-c4nnc(C)o4)ccc3C)cc2)cc1 ?
OUT: 17

====

system: PLK1; details: concentration: 1 μM, replicates: in singlicate; n = 1
measured.parameter: %Inh
Be sure to follow the number with its unit.

Known results for molecules:
IN: Any idea what %Inh was measured for Cc1ccc(O)cc1Nc1cc(C(F)(F)F)nc2ccc(-c3ccncc3)cc12 [GW630823] ?
OUT: 0%

IN: Any idea what %Inh was measured for CNc1nccc(-c2c(-c3ccc(F)cc3)ncn2C2CCN(C)CC2)n1 [SB-222903] ?
OUT: 0%

Next:
IN: Any idea what %Inh was measured for NC(=O)c1sc(-n2cnc3ccccc32)cc1OCc1ccccc1F [GSK1024306] ?
OUT: 99.8%

IN: Any idea what %Inh was measured for O=C(Nc1ccccc1F)NC1CCN(c2ccnc(Nc3ccc(F)cc3)n2)C1 (stereo not drawn) [GSK1379722] ?
OUT: 0%

IN: Any idea what %Inh was measured for Cc1cc(N2CCC(NS(=O)(=O)c3ccc(F)cc3)CC2)nc(Nc2cccc(C#N)c2)n1.O=C(O)C(F)(F)F [GSK1653537] ?
OUT: 5%

IN: Any idea what %Inh was measured for Nc1nc(-c2ccccn2)c(-c2ccnc3ccccc23)s1 [GW548057] ?
OUT: 0%

IN: Any idea what %Inh was measured for COc1ccc(-c2oc3ncnc(N)c3c2-c2ccc(OC)cc2)cc1 [SB-589132] ?
OUT: 3%

====

This listing pairs compounds with measured %Inh.
test system: CDC2L2; conditions: concentration: 1 μM, replicates: in singlicate; n = 1
Just the number in %, nothing appended.

Known results for compounds:
IN: Any idea what %Inh was measured for FC(F)(F)c1ccc(-c2nn3ncccc3c2-c2ccnc(Nc3cccc(C(F)(F)F)c3)n2)cc1 ?
OUT: 3

IN: Any idea what %Inh was measured for CCc1nc(-c2cccc(C)c2)c(-c2ccnc(NC(=O)c3ccccc3)c2)s1 ?
OUT: 2

IN: Any idea what %Inh was measured for O=C(Nc1n[nH]c2nc(-c3ccco3)c(Br)cc12)c1ccc(CN2CCCC2)cc1.O=C(O)[C@H](O)[C@@H](O)C(=O)O ?
OUT: 0

IN: Any idea what %Inh was measured for CCn1c(-c2ccncc2)nc2cnccc21 ?
OUT: 0

IN: Any idea what %Inh was measured for CCC(CC)(CC)n1cnc2c(N)ncnc21 ?
OUT: 0

Next:
IN: Any idea what %Inh was measured for NC(=O)c1sc(-n2cnc3ccccc32)cc1OCc1ccccc1F ?
OUT: 0

IN: Any idea what %Inh was measured for CN1CCC(n2cnc(-c3ccc(F)cc3)c2-c2ccnc(NC3CCNCC3)n2)CC1 ?
OUT: 8

IN: Any idea what %Inh was measured for COc1ccc(Nc2nccc(N3CCC(NC(=O)Nc4ccc5c(c4)OCO5)C3)n2)cc1 (stereo not drawn) ?
OUT: 0

IN: Any idea what %Inh was measured for COC(=O)c1c(-c2ccccc2)c2cc(Cl)ccc2c(=O)n1Cc1ccc(S(C)(=O)=O)cc1 ?
OUT: 10

IN: Any idea what %Inh was measured for COC(=O)c1cccc(NC(=O)NCCNc2ccnc(Nc3ccc(F)cc3)n2)c1 ?
OUT: 20

IN: Any idea what %Inh was measured for COc1cc2c(Nc3cccc(NC(=O)c4ccccc4)c3)ncnc2cc1OCCCN1CCOCC1 ?
OUT: 11

IN: Any idea what %Inh was measured for C[C@@H]1CCN(C(=O)CO)C[C@@H]1N(C)c1ncnc2[nH]ccc12 ?
OUT: 0

====

test system: CDC2L1; construct: gene CDK11B; conditions: concentration: 1 μM, replicates: in singlicate; n = 1
measured.parameter: %Inh (%)
Just the number in %, nothing appended.

Known results for compounds:
IN: Under CDC2L1: %Inh value of O=C(Nc1ccccc1)Nc1ccc(Oc2ccc3nccn3n2)cc1 ?
OUT: 0

IN: Under CDC2L1: %Inh value of O=C(CCO)NCCn1ccc2ncnc(Nc3ccc(Oc4cccc(C(F)(F)F)c4)c(Cl)c3)c21 ?
OUT: 0

IN: Under CDC2L1: %Inh value of COc1ccc(-c2nc3n(c2-c2ccncc2)CCC3)cc1 ?
OUT: 0

IN: Under CDC2L1: %Inh value of O=C(Nc1ccccc1F)NC1CCN(c2ccnc(Nc3ccc(F)cc3)n2)C1 (stereo not drawn) ?
OUT: 0

IN: Under CDC2L1: %Inh value of Nc1nccc2scc(-c3ccc4c(c3)CCN4C(=O)Cc3cc(F)ccc3F)c12 ?
OUT: 0

IN: Under CDC2L1: %Inh value of Cl.Cl.c1ccc(-c2cc3ccncc3cc2OC2CCNCC2)cc1 ?
OUT: 15

Next:
IN: Under CDC2L1: %Inh value of O=C(c1ccc(-c2cc(-c3c[nH]nc3-c3ccccn3)ccn2)cc1)N1CCCC1 ?
OUT: 0

IN: Under CDC2L1: %Inh value of COc1cc2ncnc(Nc3ccc(OCc4ccccc4Br)c(Cl)c3)c2cc1OC.Cl ?
OUT: 2

IN: Under CDC2L1: %Inh value of CS(=O)(=O)CCNCc1ccc(-c2ccc3ncnc(Nc4ccc(OCc5ccccc5)c(Cl)c4)c3c2)o1.Cl ?
OUT: 0
